# assay.target: COX-2 (Homo sapiens, UniProt P35354)
# Sequence (P35354 18-604): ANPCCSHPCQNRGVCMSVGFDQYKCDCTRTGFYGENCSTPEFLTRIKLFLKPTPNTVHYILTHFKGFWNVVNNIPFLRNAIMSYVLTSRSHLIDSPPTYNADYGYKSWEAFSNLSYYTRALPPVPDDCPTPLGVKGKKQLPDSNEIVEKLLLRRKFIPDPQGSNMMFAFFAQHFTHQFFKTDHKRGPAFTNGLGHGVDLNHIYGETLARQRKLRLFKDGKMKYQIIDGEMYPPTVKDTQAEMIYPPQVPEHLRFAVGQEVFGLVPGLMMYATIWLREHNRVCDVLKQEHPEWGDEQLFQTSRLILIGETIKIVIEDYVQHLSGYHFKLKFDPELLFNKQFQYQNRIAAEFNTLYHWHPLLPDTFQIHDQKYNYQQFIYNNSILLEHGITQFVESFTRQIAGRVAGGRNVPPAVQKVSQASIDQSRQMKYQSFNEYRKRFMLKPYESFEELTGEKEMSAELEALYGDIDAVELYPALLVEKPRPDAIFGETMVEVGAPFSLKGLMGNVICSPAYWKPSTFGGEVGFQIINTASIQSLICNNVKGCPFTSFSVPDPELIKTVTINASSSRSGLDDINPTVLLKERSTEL
measurement.name: IC50 (µM)
Give a bare numeral; the unit µM is implied.

Readout IC50 for CC(=O)CC(C[N+](=O)[O-])c1ccccc1 (stereo not shown) [Compound 9, 5-nitro-4-phenylpentan-2-one] , test system COX-2 (Homo sapiens, UniProt P35354), was 73.5

----------
# assay.target: COX-1 (Homo sapiens)
# Sequence (P23219 24-599): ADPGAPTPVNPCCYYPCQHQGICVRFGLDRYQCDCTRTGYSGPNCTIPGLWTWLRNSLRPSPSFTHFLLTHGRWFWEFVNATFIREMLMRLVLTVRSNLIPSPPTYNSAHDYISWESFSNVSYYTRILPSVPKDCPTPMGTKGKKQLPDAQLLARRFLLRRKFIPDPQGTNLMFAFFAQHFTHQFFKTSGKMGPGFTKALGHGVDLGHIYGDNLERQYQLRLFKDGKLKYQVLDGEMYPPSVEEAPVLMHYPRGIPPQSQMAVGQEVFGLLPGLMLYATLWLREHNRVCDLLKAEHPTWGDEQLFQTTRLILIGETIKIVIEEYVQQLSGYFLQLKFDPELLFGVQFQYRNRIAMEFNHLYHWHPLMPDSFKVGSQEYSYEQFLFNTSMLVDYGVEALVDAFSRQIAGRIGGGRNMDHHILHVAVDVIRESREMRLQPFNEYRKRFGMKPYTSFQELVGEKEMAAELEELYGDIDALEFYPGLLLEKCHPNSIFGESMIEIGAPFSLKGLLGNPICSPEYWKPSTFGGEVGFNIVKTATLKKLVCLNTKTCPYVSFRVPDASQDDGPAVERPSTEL
Each entry below carries its recorded pIC50.
In plain terms, pIC50 is the concentration in mol/L turned into minus its base-10 logarithm.

CC(=O)CC(C[N+](=O)[O-])c1ccccc1 (centres unmarked) [Compound 9, 5-nitro-4-phenylpentan-2-one]; 4.17

Readout pIC50 for CCC[C@](C)(C=O)[C@@H]1CC(=O)N(c2ccccc2)C1=O [Compound 4] , test system COX-1 (Homo sapiens), was 3.89
